Molecular target: Triosephosphate isomerase, glycosomal (Trypanosoma cruzi)
Test: Inhibition of Trypanosoma cruzi triosephosphate isomerase at 400 uM after 2 hrs
Label True for high-side inhibition (at or above 30%) and False for low-side inhibition (below it).

Example results:
{"columns": ["SMILES_STRUCTURE", "ASSIGNED_CLASS"],
 "data": [
  ["[O-][n+]1onc2ccc(/C=C/Sc3ccc(F)cc3)cc21", "True"],
  ["CCCCCCNC(=O)N/N=C/C=C/c1ccc([N+](=O)[O-])o1", "True"]
]}

Next, consider the following compound.
In: Identify whether the reported inhibition of the following compound is 30% or greater: "COc1ccc(CCNC(=O)N/N=C/c2ccc([N+](=O)[O-])o2)cc1OC"
Out: True

---

Target: Triosephosphate isomerase, glycosomal (Trypanosoma cruzi)
Test: Inhibition of Trypanosoma cruzi triosephosphate isomerase at 100 uM after 2 hrs
Class definitions on inhibition: low range (below 20%), mid range (20% to below 60%), high range (60% or more)

Study these solved cases before continuing.
{"columns": ["SMILES_STRUCTURE", "ASSIGNED_CLASS"],
 "data": [
  ["[O-][n+]1onc(-c2ccccc2)c1CNc1cccc2ccccc12", "mid range"],
  ["O/N=C1C=CC(/C=C/c2ccccc2)=CC/1=N/O", "low range"]
]}

In: Which bin should I file "CCOC(=O)c1nc(-c2cc(C(C)(C)C)c(O)c(C(C)(C)C)c2)ns1" under?
Out: high range

In: Consider "C=CCNC(=S)N/N=C\c1ccccc1OCc1ccc2no[n+]([O-])c2c1" . To which inhibition class does it belong?
Out: mid range

In: Lab note: which band did "NC1=NS(=O)(=O)N=C(N)C1=Cc1ccc([N+](=O)[O-])o1" land in?
Out: high range

In: Exam item: assign "CCCCCCN1C(=O)C(=Cc2ccc([N+](=O)[O-])cc2)C(=O)N(CCCCCC)S1(=O)=O" to the correct category.
Out: mid range

---

Biological target: Triosephosphate isomerase, glycosomal (Trypanosoma cruzi) (UniProt P52270)
Sequence (P52270 whole entry): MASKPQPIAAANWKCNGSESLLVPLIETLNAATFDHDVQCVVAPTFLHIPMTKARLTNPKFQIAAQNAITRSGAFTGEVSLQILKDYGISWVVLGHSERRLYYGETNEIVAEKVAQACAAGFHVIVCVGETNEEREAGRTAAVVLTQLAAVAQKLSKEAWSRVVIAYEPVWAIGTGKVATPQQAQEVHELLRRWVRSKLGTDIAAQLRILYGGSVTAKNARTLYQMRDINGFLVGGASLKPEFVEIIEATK
Test: Inhibition of Trypanosoma cruzi triosephosphate isomerase at 400 uM after 2 hrs
MEASURED_QUANTITY: inhibition (%)
Give bare numbers, in %.

{"columns": ["SMILES_STRUCTURE", "QUANTITY_UNIT", "inhibition"],
 "data": [
  ["NC1=NS(=O)(=O)N=C(N)C1", "%", 0],
  ["C=C(C)CNC(=O)N/N=C/c1ccc([N+](=O)[O-])o1", "%", 6],
  ["O/N=C1C=CC(/C=C/c2ccccc2)=CC/1=N/O", "%", 77],
  ["NC(=O)N/N=C/C=C/c1ccc([N+](=O)[O-])o1", "%", 13],
  ["Cc1nnc(C)[n+]([O-])c1/C=C/c1ccc(N(C)C)cc1", "%", 26]
]}

Dear reader, for each entry below, please note its inhibition.
1. CC(=O)CC(=O)Nc1ccccc1
2. CN(CCCN(C)Cc1cccc2ccccc12)Cc1cccc2ccccc12
3. C=CCNC(=S)N/N=C/C=C/c1ccc([N+](=O)[O-])o1

Out:
1. 17
2. 55
3. 12

---

Target: UniProt:P52270
Assay: Inhibition of Trypanosoma cruzi triosephosphate isomerase at 400 uM after 2 hrs
MEASURED_QUANTITY: inhibition (%)
One number for each entry, in %.

{"columns": ["MOLECULE", "MEASURED"],
 "data": [
  ["CCCCCCOC(=O)N/N=C/C=C/c1ccc([N+](=O)[O-])o1", 39]
]}

Quick batch: inhibition for everything below.
1. O=[N+]([O-])c1ccc(N2CCSCC2)c([N+](=O)[O-])c1
2. Cc1ccc(-c2nsc(S(=O)(=O)c3ccc(C)cc3)n2)cc1

Out:
1. 20
2. 78

Go through the list and state inhibition for each entry.
1. [O-][n+]1onc2ccc(/C=N/NC(=S)Nc3ccccc3)cc21
2. O=C(Oc1ccccc1)N1CCOCC1
3. Cc1ccc2c(c1)=[N+]([O-])C(C)[N+]=2[O-] (configuration not stated)

Out:
60
26
18

In: So what does the record say about inhibition for "[O-][n+]1onc(-c2ccccc2)c1CN1CCSCC1" ?
Out: 47

---

Biological target: UniProtKB P52270
Assay: Inhibition of Trypanosoma cruzi triosephosphate isomerase at 400 uM after 2 hrs
Record criterion met whenever inhibition is at 30% or higher; record criterion not met when lower.

// below: answered compounds
{"columns": ["SMILES_STRUCTURE", "ASSIGNED_CLASS"],
 "data": [
  ["O=[N+]([O-])c1ccccc1/C=N/N1CCOCC1", "criterion not met"],
  ["C/C(=C\\c1cccs1)[N+](=O)[O-]", "criterion met"],
  ["C=CCNC(=S)N/N=C/c1ccc([N+](=O)[O-])s1", "criterion met"]
]}

In: I'd appreciate it if you could say whether "[O-][n+]1onc2ccc(C=Cc3ccc(C(F)(F)F)cc3)cc21" has inhibition at least equal to 30%.
Out: criterion met

In: Threshold query (inhibition >= 30%) on "CC1(C)[N+]([O-])=c2ccc(/C=C/c3ccccc3)cc2=[N+]1[O-]"
Out: criterion not met

---

Target: UniProt:P52270
Test: Inhibition of Trypanosoma cruzi triosephosphate isomerase at 100 uM after 2 hrs
# label = met if inhibition >= 20% else not met

{"columns": ["SMILES_STRUCTURE", "STUDY_TARGET", "ASSIGNED_CLASS"],
 "data": [
  ["[O-][n+]1onc2ccc(/C=C/c3ccc4nonc4c3)cc21", "UniProt:P52270", "not met"],
  ["O=[N+]([O-])c1ccc(/C=C/C=N/NC(=S)Nc2ccccc2)o1", "UniProt:P52270", "met"],
  ["Cc1ccc(-c2nsc(S(=O)(=O)c3ccc(C)cc3)n2)cc1", "UniProt:P52270", "met"],
  ["NC(=S)N/N=C/c1ccc([N+](=O)[O-])o1", "UniProt:P52270", "met"],
  ["[O-][n+]1onc2ccc(/C=C/Sc3ccc(F)cc3)cc21", "UniProt:P52270", "met"],
  ["Cc1ccc(-c2nsc(=O)[nH]2)cc1", "UniProt:P52270", "met"]
]}

In: Check if inhibition >= 20% (inclusive). Item: "[O-][n+]1onc2ccc(/C=N/N=C/c3cc(Br)ccc3O)cc21"
Out: not met

In: Can "NC(=O)N/N=C/c1ccc(OCc2ccc3no[n+]([O-])c3c2)cc1" be said to have inhibition at or above 20%?
Out: met

In: Is inhibition for "O=[N+]([O-])c1ccc(/C=N/NC(=S)Nc2ccccc2)s1" at or above 20%?
Out: met

---

Molecular target: Triosephosphate isomerase, glycosomal (Trypanosoma cruzi) (UniProt P52270)
Experiment: Inhibition of Trypanosoma cruzi triosephosphate isomerase at 400 uM after 2 hrs
MEASURED_QUANTITY: inhibition (%)
Answers are plain numbers, in %.

{"columns": ["SMILES_STRUCTURE", "STUDY_TARGET", "MEASURED_QUANTITY", "MEASURED"],
 "data": [
  ["O=C1C(=Cc2ccc([N+](=O)[O-])s2)C(=O)N(Cc2ccccc2)S(=O)(=O)N1Cc1ccccc1", "Triosephosphate isomerase, glycosomal (Trypanosoma cruzi) (UniProt P52270)", "inhibition", 77],
  ["COc1ccc(/C=C/c2c(C)nnc[n+]2[O-])cc1", "Triosephosphate isomerase, glycosomal (Trypanosoma cruzi) (UniProt P52270)", "inhibition", 11],
  ["C=CCNC(=S)N/N=C/c1ccc2no[n+]([O-])c2c1", "Triosephosphate isomerase, glycosomal (Trypanosoma cruzi) (UniProt P52270)", "inhibition", 14],
  ["C/C(=C\\c1ccc(Br)cc1)[N+](=O)[O-]", "Triosephosphate isomerase, glycosomal (Trypanosoma cruzi) (UniProt P52270)", "inhibition", 95],
  ["CC(=O)NCc1ccccc1", "Triosephosphate isomerase, glycosomal (Trypanosoma cruzi) (UniProt P52270)", "inhibition", 32]
]}

Kindly give each listed record's inhibition.
1. COCCNC(=O)N/N=C/c1ccc([N+](=O)[O-])o1
2. Cc1nnc[n+]([O-])c1/C=C/c1ccc(N(C)C)cc1
3. O=C(/C=C/c1ccco1)N1CCN(C/C=C/c2ccccc2)CC1
4. COCCNC(=O)N/N=C/C=C/c1ccc([N+](=O)[O-])o1

Out:
5
8
0
0

---

For each entry below, report its inhibition value.
Biological target: Triosephosphate isomerase, glycosomal (Trypanosoma cruzi)
Experiment: Inhibition of Trypanosoma cruzi triosephosphate isomerase at 100 uM after 2 hrs
One number for each entry, in %.

{"columns": ["SMILES_STRUCTURE", "inhibition / %"],
 "data": [
  ["Nc1ccc(-c2ccccc2)cc1[N+](=O)[O-]", 47]
]}

Go through the list and state inhibition for each entry.
1. O/N=C1/C=CC(C=Cc2ccc(Cl)cc2)=C/C1=N/O
2. CCCCNC(=O)N/N=C/c1ccc([N+](=O)[O-])o1

Out:
25
17
